Just for reference, ChEMBL document CHEMBL4190400 is where these values come from.

Protocol summary: Clearance in mouse at 25 mg/kg, po administered via gavage cotreated with 20 mg/kg ritonavir
Assay type: ADME, organism-based
Study conditions: in vivo
Measured parameter: CL/F (mL/min/kg)
One number for each entry, in mL/min/kg.

Sample [2H]C([2H])(c1cc(Cl)ccc1N)N1CCN(C(=O)CNC(=O)CC2CCC(F)(F)CC2)CC1 ; CL/F observed: 12.3

---

Protocol summary: in vivo
Study conditions: mouse, po, 25 mg/kg
Measured parameter: half-life (h)
One number for each entry, in h.

Form field half-life, entry [2H]C([2H])(c1cc(Cl)ccc1N)N1CCN(C(=O)CNC(=O)CC2CCC(F)(F)CC2)CC1 : 2.3
